measurement description: Solubility in PBS at 1 mg incubated for 24 hrs in shaker and measured after 24 hrs by shake-flask method based UV-VIS-NIR spectrophotometric analysis
Format: physicochemical
solubility thermodynamic at 24 h values for the molecules below.
Write the value in µg/mL as a bare number.

{"smiles repr": "CC1(C)CC(Nc2nccc(Nc3ccc(-c4ccccc4)cc3)n2)CC(C)(C)N1", "solubility thermodynamic at 24 h / µg/mL": 93}

Now let's try a different one.
Kindly note the recorded solubility thermodynamic at 24 h for c1ccc(-c2ccc(Nc3ccnc(NCCN4CCCCC4)n3)cc2)cc1 , which is 32

----------
measurement description: Half life in mouse plasma at 50 uM measured up to 120 mins by HPLC-MS analysis
Format: ADME, cell-free
test readout: half-life at 50 µM

{"smiles repr": "c1ccc(-c2ccc(Nc3ccnc(NCCN4CCCCC4)n3)cc2)cc1", "half-life at 50 µM": "> 2 h"}

Could you now look at the following compound, please?
half-life at 50 µM recorded for this compound, CC1(C)CC(Nc2nccc(Nc3ccc(-c4ccccc4)cc3)n2)CC(C)(C)N1 , is > 2 h

----------
measurement description: Solubility in simulated intestinal fluid at 1 mg incubated for 24 hrs in shaker and measured after 24 hrs by shake-flask method based UV-VIS-NIR spectrophotometric analysis
Type: physicochemical
test readout: solubility thermodynamic at 24 h (µg/mL)
Numeric answer only, unit µg/mL assumed.

{"smiles repr": "c1ccc(-c2ccc(Nc3ccnc(NCCN4CCCCC4)n3)cc2)cc1", "test readout": "solubility thermodynamic at 24 h", "obs value": 324}

// next entry
For record CC1(C)CC(Nc2nccc(Nc3ccc(-c4ccccc4)cc3)n2)CC(C)(C)N1 the listed solubility thermodynamic at 24 h is 580

----------
measurement description: Half life in simulated intestinal fluid at 50 uM measured up to 120 mins at pH 6.8 by HPLC-MS analysis
Type: ADME
test readout: half-life at 50 µM

{"smiles repr": "CC1(C)CC(Nc2nccc(Nc3ccc(-c4ccccc4)cc3)n2)CC(C)(C)N1", "test readout": "half-life at 50 µM", "obs value": "> 2 h"}

We now examine a further compound.
Briefly, half-life at 50 µM measured for c1ccc(-c2ccc(Nc3ccnc(NCCN4CCCCC4)n3)cc2)cc1 : > 2 h

----------
Consider the following compounds and their measured CC50 at 48 h readings.
measurement description: Cytotoxicity against human A549 cells assessed as reduction in cell viability after 48 hrs by MTT assay
Assay type: cell-based
Just the number please, in µM, no unit attached.

Please review the following examples before continuing.
{"smiles repr": "CN1CCN(c2nccc(Nc3ccc(-c4cccc(Cl)c4)cc3)n2)CC1", "CC50 at 48 h / µM": 15.3}
{"smiles repr": "CC1(C)CC(Nc2nccc(Nc3ccc(Cl)cc3)n2)CC(C)(C)N1", "CC50 at 48 h / µM": 18.6}
{"smiles repr": "Cc1ccc(-c2ccc(Nc3ccnc(NC4CC(C)(C)NC(C)(C)C4)n3)cc2)cc1", "CC50 at 48 h / µM": 12}
{"smiles repr": "Cc1ccc(CNc2ccnc(NC3CC(C)(C)NC(C)(C)C3)n2)cc1", "CC50 at 48 h / µM": 15.2}
{"smiles repr": "Clc1ccc(-c2ccc(Nc3ccnc(NCCN4CCCCC4)n3)cc2)cc1", "CC50 at 48 h / µM": 14.3}
{"smiles repr": "COc1ccc(CNc2ccnc(NC3CC(C)(C)NC(C)(C)C3)n2)cc1", "CC50 at 48 h / µM": 18.3}

The compound identified as Cc1ccc(-c2ccc(Nc3ccnc(N4CCN(C)CC4)n3)cc2)cc1 registered its CC50 at 48 h at 27.7

Entry CC1(C)CC(Nc2nccc(NCc3ccc(Cl)cc3)n2)CC(C)(C)N1 — recorded CC50 at 48 h = 21.1

Recorded result, O=C(Nc1ccnc(NCCN2CCOCC2)n1)c1ccc(-c2ccccn2)s1 , CC50 at 48 h: 10.5

Looking up Cc1ccc(-c2ccc(Nc3ccnc(NCCN4CCOCC4)n3)cc2)cc1 , I see its CC50 at 48 h listed as 10.2
